- subject of test: truncated form of human NaV 1.8 with full channel activity (Homo sapiens, UniProt Q9Y5Y9)
- Sequence (Q9Y5Y9 126-1722 limits assumed): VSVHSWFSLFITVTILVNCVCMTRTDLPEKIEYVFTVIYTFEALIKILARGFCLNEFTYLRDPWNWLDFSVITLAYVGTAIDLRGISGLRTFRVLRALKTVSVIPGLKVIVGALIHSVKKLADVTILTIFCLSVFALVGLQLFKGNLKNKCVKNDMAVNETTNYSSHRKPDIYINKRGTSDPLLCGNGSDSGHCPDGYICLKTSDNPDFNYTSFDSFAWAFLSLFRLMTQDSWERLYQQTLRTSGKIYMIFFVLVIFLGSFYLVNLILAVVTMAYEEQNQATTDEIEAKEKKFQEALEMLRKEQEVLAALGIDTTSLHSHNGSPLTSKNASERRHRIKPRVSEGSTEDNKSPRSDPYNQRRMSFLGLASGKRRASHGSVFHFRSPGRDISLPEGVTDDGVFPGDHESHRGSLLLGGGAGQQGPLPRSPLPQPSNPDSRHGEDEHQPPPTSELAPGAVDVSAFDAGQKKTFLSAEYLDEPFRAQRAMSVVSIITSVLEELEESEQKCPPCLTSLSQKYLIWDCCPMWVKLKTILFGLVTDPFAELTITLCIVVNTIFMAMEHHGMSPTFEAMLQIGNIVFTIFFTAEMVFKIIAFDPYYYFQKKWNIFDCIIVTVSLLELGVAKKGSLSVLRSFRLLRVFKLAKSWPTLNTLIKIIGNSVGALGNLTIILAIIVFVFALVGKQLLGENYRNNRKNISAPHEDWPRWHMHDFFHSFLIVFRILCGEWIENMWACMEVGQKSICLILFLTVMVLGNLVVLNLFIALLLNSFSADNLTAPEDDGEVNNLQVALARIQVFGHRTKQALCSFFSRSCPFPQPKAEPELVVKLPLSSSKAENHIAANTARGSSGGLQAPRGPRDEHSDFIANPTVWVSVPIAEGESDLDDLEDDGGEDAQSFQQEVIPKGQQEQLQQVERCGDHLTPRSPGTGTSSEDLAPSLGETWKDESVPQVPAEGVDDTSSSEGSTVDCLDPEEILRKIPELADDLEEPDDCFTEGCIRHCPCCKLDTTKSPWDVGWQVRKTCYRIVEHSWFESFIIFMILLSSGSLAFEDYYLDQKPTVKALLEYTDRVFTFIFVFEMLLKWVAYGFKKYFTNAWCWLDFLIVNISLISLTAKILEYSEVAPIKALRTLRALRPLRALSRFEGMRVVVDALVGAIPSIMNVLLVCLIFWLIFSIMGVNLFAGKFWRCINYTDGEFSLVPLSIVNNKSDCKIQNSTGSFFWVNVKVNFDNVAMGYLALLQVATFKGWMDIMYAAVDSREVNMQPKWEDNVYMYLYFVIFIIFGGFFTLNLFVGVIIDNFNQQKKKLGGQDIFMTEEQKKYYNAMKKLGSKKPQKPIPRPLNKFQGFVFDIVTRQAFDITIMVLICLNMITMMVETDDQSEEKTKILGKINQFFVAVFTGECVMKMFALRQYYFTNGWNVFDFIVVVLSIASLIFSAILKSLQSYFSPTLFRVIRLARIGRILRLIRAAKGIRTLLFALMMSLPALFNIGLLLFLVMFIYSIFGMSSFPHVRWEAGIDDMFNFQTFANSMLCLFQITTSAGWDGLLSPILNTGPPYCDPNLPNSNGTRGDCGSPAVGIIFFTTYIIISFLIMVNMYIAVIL
- test name: E-VIPR Assay Method A for detecting and measuring Nav inhibition (HEK cells, membrane potential FRET dyes, electrical stimulation)
- Assay type: cell-based
- measurement setup: HEK cells expressing human NaV 1.8, HS (human serum) in compound loading buffer, 11 point dose response, top dose 3 μM, Table 20A, read-out: Nav 1.8 MedChem Optical Assay EVIPR Assay Method A HS IC50
We label by threshold. Values of IC50 strictly beneath 0.2 µM are satisfied. Values of 0.2 µM and up are not satisfied.

> print(dat)
                                   molecule          label
1  COc1cc(OC(F)(F)F)ccc1Oc1cc(Cl)c(C)c(F)c1C(=O)Nc1cc(C(N)=O)ncc1C [Compound 211]      satisfied
2  [2H]C([2H])([2H])Oc1cc(OC(F)(F)F)ccc1Oc1cc(C(F)(F)F)cc(C(F)(F)F)c1C(=O)Nc1ccnc(C(N)=O)c1 [Compound 175]      satisfied
3  COc1cc(OC(F)(F)F)ccc1Oc1cnc(C2CC2)c(F)c1C(=O)Nc1ccc(F)c(C(N)=O)c1 [Compound 46]  not satisfied
4  COc1cc(F)ccc1Oc1ccc(OC(F)(F)F)cc1C(=O)Nc1ccnc(C(N)=O)c1 [Compound 157]  not satisfied
5  [2H]C([2H])([2H])Oc1cc(OC(F)(F)F)ccc1Oc1cc(OC(F)F)cc(F)c1C(=O)Nc1ccc(C(N)=O)nc1 [Compound 174]      satisfied
6  Cc1cc(OC(F)(F)F)ccc1Oc1ccc(C(F)(F)F)c(F)c1C(=O)Nc1ccnc(C(N)=O)c1 [Compound 59]      satisfied
7  COc1cc(OC(F)(F)F)ccc1Oc1cc(C(F)(F)F)cnc1C(=O)Nc1cccc(C(N)=O)c1 [Compound 31]      satisfied
